# TARGET_SYSTEM: ATP-dependent translocase ABCB1 (Homo sapiens)
# Sequence (P08183 whole entry): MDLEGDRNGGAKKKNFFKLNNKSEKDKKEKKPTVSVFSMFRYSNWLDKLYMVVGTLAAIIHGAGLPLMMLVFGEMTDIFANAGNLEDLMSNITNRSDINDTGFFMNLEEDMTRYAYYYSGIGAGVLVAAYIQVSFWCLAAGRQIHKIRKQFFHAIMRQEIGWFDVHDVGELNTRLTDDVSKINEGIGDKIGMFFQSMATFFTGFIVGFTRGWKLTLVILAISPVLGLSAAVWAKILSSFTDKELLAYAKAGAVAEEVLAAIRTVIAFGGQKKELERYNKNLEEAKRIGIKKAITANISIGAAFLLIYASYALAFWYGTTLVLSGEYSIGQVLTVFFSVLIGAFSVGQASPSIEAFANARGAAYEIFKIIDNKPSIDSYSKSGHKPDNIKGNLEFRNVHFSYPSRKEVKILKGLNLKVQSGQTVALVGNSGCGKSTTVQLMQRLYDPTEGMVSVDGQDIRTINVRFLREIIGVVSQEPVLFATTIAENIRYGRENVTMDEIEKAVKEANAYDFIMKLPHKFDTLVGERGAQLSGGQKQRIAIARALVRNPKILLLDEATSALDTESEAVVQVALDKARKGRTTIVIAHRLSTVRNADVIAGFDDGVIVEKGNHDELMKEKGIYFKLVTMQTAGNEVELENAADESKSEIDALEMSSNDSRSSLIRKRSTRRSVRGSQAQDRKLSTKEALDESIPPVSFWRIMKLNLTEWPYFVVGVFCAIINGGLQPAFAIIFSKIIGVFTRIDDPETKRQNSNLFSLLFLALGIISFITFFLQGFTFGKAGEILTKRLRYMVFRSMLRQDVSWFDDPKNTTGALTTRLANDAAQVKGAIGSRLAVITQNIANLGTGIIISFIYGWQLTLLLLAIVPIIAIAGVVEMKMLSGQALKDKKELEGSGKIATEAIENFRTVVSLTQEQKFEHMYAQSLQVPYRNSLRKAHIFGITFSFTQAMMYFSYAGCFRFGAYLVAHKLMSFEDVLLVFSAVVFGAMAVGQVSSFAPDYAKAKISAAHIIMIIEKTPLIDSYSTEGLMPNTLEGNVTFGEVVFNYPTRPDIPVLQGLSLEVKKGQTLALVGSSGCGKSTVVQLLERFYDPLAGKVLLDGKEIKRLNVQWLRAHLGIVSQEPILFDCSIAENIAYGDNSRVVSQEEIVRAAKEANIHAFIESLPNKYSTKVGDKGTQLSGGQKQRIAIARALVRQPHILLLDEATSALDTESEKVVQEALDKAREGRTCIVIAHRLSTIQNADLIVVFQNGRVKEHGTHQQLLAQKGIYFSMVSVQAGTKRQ
# EXPERIMENTAL_PROTOCOL: Reversal of P-glycoprotein-mediated multidrug resistance in human MDR1 gene transfected mouse L5178Y cells assessed as fluorescence activity ratio at 40 ug/ml by flow cytometry
# Format: cell-based
MEASURED_PARAMETER: Ratio

Consider the worked cases shown below.
- MOLECULE: "CN(C)CCOc1ccc(C(=O)N2C/C(=C\\c3ccccc3)C(=O)/C(=C/c3ccccc3)C2)cc1.Cl"
  VALUE_REPORTED: 51.6
- MOLECULE: "CCN(CC)CCOc1ccc(C(=O)N2C/C(=C\\c3ccc([N+](=O)[O-])cc3)C(=O)/C(=C/c3ccc([N+](=O)[O-])cc3)C2)cc1.Cl"
  VALUE_REPORTED: 14.1

A: O=C1/C(=C/c2ccccc2)CNC/C1=C\c1ccccc1
B: CC[N+](C)(CC)CCOc1ccc(C(=O)N2C/C(=C\c3ccc([N+](=O)[O-])cc3)C(=O)/C(=C/c3ccc([N+](=O)[O-])cc3)C2)cc1.[I-]
Thinking about recorded Ratio values, which is higher, A or B ? Your answer should be the label of the entry you select.
A
(A: 2, B: 1.22)

a: O=C1/C(=C/c2ccc(Cl)cc2)CNC/C1=C\c1ccc(Cl)cc1
b: Cc1ccc(/C=C2\CN(C(=O)c3ccc(OCCN4CCCCC4)cc3)C/C(=C\c3ccc(C)cc3)C2=O)cc1.Cl
For a and b , which recorded Ratio is lower? Let me know the label of the one you choose.
a
(a: 0.91, b: 146)

I: Cl.O=C1/C(=C/c2ccc(Cl)cc2)CN(C(=O)c2ccc(OCCN3CCOCC3)cc2)C/C1=C\c1ccc(Cl)cc1
II: Cc1ccc(/C=C2\CNC/C(=C\c3ccc(C)cc3)C2=O)cc1
Param pair: I , II . Output: the one whose Ratio is numerically greater. Answer by quoting the chosen item's label.
I
(I: 6.88, II: 4.03)

Source of measurements: ChEMBL document CHEMBL1145596
